Items are presented alongside their recorded IC50.
# assayProcedure: Inhibition of Beta-lactamase GES-7 K104, G170 mutant preincubated for 5 mins before substrate addition using cephalothin substrate by spectrophotometry
Could you give me the number in µM? Just the number is fine.

{"compound": "C[C@]1(Cn2ccnn2)[C@H](C(=O)O)N2C(=O)C[C@H]2S1(=O)=O [TAZOBACTAM]", "IC50 (µM)": 0.06}

Consider O=C(O)[C@H]1/C(=C/CO)O[C@@H]2CC(=O)N21 [CLAVULANIC ACID] . Its measured IC50 is 0.8

* * *

# assayProcedure: Ratio of Kcat to Km for Beta-lactamase GES-2 E104, N170 mutant
reportedMetric: kcat/Km (M⁻¹ s⁻¹)
Lab book: enter the figure in M⁻¹ s⁻¹, no units written.

// below: answered compounds
{"compound": "C[C@@H](O)[C@H]1C(=O)N2C(C(=O)O)=C(SCCNC=N)C[C@H]12 [IMIPENEM ANHYDROUS]", "kcat/Km [M⁻¹ s⁻¹]": 20000}
{"compound": "CO/N=C(\\C(=O)N[C@@H]1C(=O)N2C(C(=O)O)=C(COC(C)=O)CS[C@H]12)c1csc(N)n1", "kcat/Km [M⁻¹ s⁻¹]": 140000}
{"compound": "CC(C)(O/N=C(\\C(=O)N[C@@H]1C(=O)N2C(C(=O)[O-])=C(C[n+]3ccccc3)CS[C@H]12)c1csc(N)n1)C(=O)O", "kcat/Km [M⁻¹ s⁻¹]": 2000}

Could you now consider this next compound?
Entry CC1(C)S[C@@H]2[C@H](NC(=O)Cc3ccccc3)C(=O)N2[C@H]1C(=O)O — recorded kcat/Km = 70000

From: ChEMBL document CHEMBL1687781
